measurement target: T1, cynomolgus monkey OX40 protein (Novoprotein, #CB17) (cynomolgus monkey)
T1 construct: Bought recombinant protein; also called cyno OX40
procedure details: ELISA, coated cyno OX40 protein
quantity: Maximum OD
Give the figure together with its unit, number first.

PR002067 (antibody, human IgG1, V domains shown, no light chain; also called anti-OX40 HCAb antibody) VH: EVQLLESGGGLVQPGGSLRLSCAASGFTFSSYAMSWVRQAPGKGLEWVSAISGRGGSTFYADSVRGRFTISRDNSKNTLYLQMNSLRAEDTAMYYCVDGTTGTTDVDYWGQGTLVTVSS | 2.16 OD

Give its Maximum OD value. Item: PR002073 (antibody, human IgG1, V domains shown, no light chain; also called anti-OX40 HCAb antibody) VH: EVQLVESGGGLVQPGGSLRLSCAASGFTFSSYAMSWVRQAPGKGLEWVSAISGGSGSTFYADSVRGRFTISRDNSKNTLYLQMNSLRAEDTAVYYCADGVTGTDFDFWGQGTLVTVSS
2.55 OD

Give its Maximum OD value. Item: PR002069 (antibody, human IgG1, V domains shown, no light chain; also called anti-OX40 HCAb antibody) VH: EVQLLESGGGLVQPGGSLRLSCAASGFTFSSYAMSWVRQAPGKGREWVSAISGGGGNTFYADSVRGRFTISRDNSKNTLYLQMNSLRAEDTAVYYCANGVTGTTDVDYWGQGTLVTVSS
2.24 OD

Give its Maximum OD value. Item: PR002056 (antibody, human IgG1, V domains shown, no light chain; also called anti-OX40 HCAb antibody) VH: EVQLLESGGGLVQPGGSLRLSCAASGFTFSSYAMSWVRQAPGKGLEWVSAISGGGGSIFYADSVRGRFTISRDNSKNTLYLQMNSLRAEDTAVYYCANGMTGTTDVDYWGQGTLVTVSS
1.69 OD
